The measurements presented in this section are drawn from PubChem BioAssay (NCI).

For each of the molecules below, state its TGI.
Test system: A549 NSCLC
Experiment: NCI tumour cell line growth inhibition, 48 h

Query: I'd like to know its TGI. The molecule in question is COC/C=C\[C@]1(O)CCCC[C@@H]1CC(OC)OC
Result: > 100 µM

Query: And the next one, CC(=O)O.[Au].c1ccc([PH+](c2ccccc2)c2ccccc2)cc1 ?
Result: 66.1 µM

Query: And the next one, COc1cc(/C=C2\CN(C)CC3=C2NC(=S)NC3c2cc(OC)c(OC)c(OC)c2)cc(OC)c1OC (stereo not given) ?
Result: > 100 µM

Query: And the next one, O=C(O)[C@@H]1CCCCN1Cc1cc2cc3c(cc2c2cc(OCc4ccccc4)ccc12)OCO3 ?
Result: 15.1 µM

Query: And the next one, Clc1ccc(-c2c(C3=NCCCN3)nnn2-c2ccc(Cl)cc2)cc1 ?
Result: > 100 µM

Query: And the next one, COc1ccc(N2C(=O)c3cc(C)cnc3S2(=O)=O)cc1 ?
Result: > 100 µM

Query: And the next one, O=C1N[C@@H](c2c[nH]c3cc(Br)ccc23)C(=O)N[C@H]1c1c[nH]c2cc(Br)ccc12 ?
Result: > 100 µM

Query: And the next one, COc1ccc(/C=C\c2cc(OC)c(OC)c(OC)c2)cc1OC(=O)NCCN(C)C ?
Result: > 41.3 µM

Query: And the next one, N#CCC(=O)NC1C2CC3CC(C2)CC1C3 (stereo not given) ?
Result: > 100 µM

Query: And the next one, Cn1c2ccccc2c2c3[nH]c(=O)[nH]c(=O)c3c3c4ccccc4n(C)c3c21 ?
Result: > 100 µM

* * *

Tested on: MALME-3M melanoma
Assay: NCI tumour cell line growth inhibition, 48 h
Measurement name: TGI (µM)
Please respond with the number in µM and leave the unit unwritten.

Query: Fill in the recorded TGI for this compound, with MALME-3M melanoma as test system: O=C(/C=C\n1cnc(-c2cc(C(F)(F)F)cc(C(F)(F)F)c2)n1)NNc1cnccn1
Result: 10.5

Query: And the next one, C=C(C)C1CCC2(C(=O)O)CCC3(C)C(CCC4C5(C)CCC(OC(=O)NCc6ccccc6)C(C)(C)C5CCC43C)C12 (stereo not given) ?
Result: 54.1

Query: And the next one, CCN(CC)CC(=O)O[C@]1(CC)C(=O)OCc2c1cc1n(c2=O)Cc2cc3ccccc3nc2-1 ?
Result: 2.61

Query: And the next one, CN1C2CCC1CC(CCNC(c1ccccc1)c1ccccc1)C2 (stereo not given) ?
Result: 31.4

* * *

Tested on: NCI-H23 lung
Assay: NCI tumour cell line growth inhibition, 48 h; in the data active = GI50 below about 0.43 µM; inactive = the rest
The reply should be one of these categories: true (1) for active, false (0) for inactive

Query: Outcome? Cn1c2ccccc2c2c3[nH]c(=O)[nH]c(=O)c3c3c4ccccc4n(C)c3c21
Result: false (0)

Query: And the next one, Cc1ccc(NC(=O)NCCCOc2ccc(N3C(N)=NC(N)=NC3(C)C)cc2Cl)cc1S(=O)(=O)F ?
Result: false (0)

Query: And the next one, Nc1nc(-c2cccc(Cl)c2)c(-c2ccc3ncccc3n2)s1 ?
Result: false (0)

Query: And the next one, COC(=O)C12C3C4C1C1C2C3C41NC(=O)c1csc([C@@H](C[C@H](C(C)C)N(C)C(=O)[C@@H](NC(=O)[C@H]2CCCCN2C)C2CC2)OC(C)=O)n1 (some centres undefined) ?
Result: true (1)

Query: And the next one, O=C1NN(C2=NNC3(C(=O)N2)c2ccccc2-c2ccccc23)C(c2ccccc2)=N/C1=C/c1ccc(O)cc1 ?
Result: false (0)

Query: And the next one, Cc1cc(O)c(C(C)(C)C)cc1Sc1cc(C(C)(C)C)c(O)cc1C ?
Result: false (0)

Query: And the next one, N.N.O=C([O-])P(=O)([O-])[O-].[Na+].[Pt+4] ?
Result: false (0)

Query: And the next one, N#Cc1cccc(NC(=O)c2cc(-c3ccc(F)cc3F)ccc2O)c1 ?
Result: false (0)

Query: And the next one, c1cc[c]([Pb]([c]2ccccc2)[c]2ccccc2)cc1 ?
Result: false (0)
